// data source = patent US20220017572A1

measuredTarget: dengue 2 protease (Dengue virus type 2)
Construct: The active site of the dengue protease is in the N-terminal part of NS3
Sequence (P14340 1476-1653): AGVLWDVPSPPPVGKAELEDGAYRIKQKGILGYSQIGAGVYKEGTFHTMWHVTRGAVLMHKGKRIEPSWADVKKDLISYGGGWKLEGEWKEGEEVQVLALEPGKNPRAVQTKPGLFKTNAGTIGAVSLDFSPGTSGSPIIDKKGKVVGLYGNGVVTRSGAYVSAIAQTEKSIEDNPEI
protocolText: Dengue 2 protease inhibition, hydrolysis of Z-RR-MCA
Format: biochemical, dengue 2 virus
particulars: 15 μM inhibitor, 36.5° C.
Residues, ends and D or L forms follow the SMILES beside them.
// reported activity at 15 µM per item
Output spec: scalar in %, unitless text.

Known activity at 15 µM results, listed for orientation:
CCCCCCCCCCCCCCCCNC(=O)[C@H](CCCCN)NC(=O)CNC(=O)CNC(=O)[C@H](CCCCN)NC(=O)CCCCCCCCCCCCCCC [C16-KGGK-C16, C15H31CO-KGGK-NH—C16H33] (HELM PEPTIDE1{[CCCCCCCCCCCCCCCC(=O)[*:2]].K.G.G.K.[CCCCCCCCCCCCCCCCN[*:1]]}$$$$V2.0) = 76
CCCCCCCCCCCCCCCCNC(=O)[C@H](CCCCN)NC(=O)CNC(=O)CNC(=O)CNC(=O)[C@H](CCCCN)NC(=O)CCCCCCCCCCCCCCC [C16-KGGGK-C16, C15H31CO-KGGGK-NH—C16H33] (HELM PEPTIDE1{[CCCCCCCCCCCCCCCC(=O)[*:2]].K.G.G.G.K.[CCCCCCCCCCCCCCCCN[*:1]]}$$$$V2.0) = 74

Now for a further molecule.
In: Query: activity at 15 µM; subject: CCCCCCCCCCCCCCCCNC(=O)[C@H](CCCCN)NC(=O)CNC(=O)CNC(=O)CNC(=O)CNC(=O)[C@H](CCCCN)NC(=O)CCCCCCCCCCCCCCC [C16KG4KC16] (HELM PEPTIDE1{[CCCCCCCCCCCCCCCC(=O)[*:2]].K.G.G.G.G.K.[CCCCCCCCCCCCCCCCN[*:1]]}$$$$V2.0)
Out: 70

---

measuredTarget: dengue 2 protease (Dengue virus type 2)
Construct: The active site of the dengue protease is in the N-terminal part of NS3
protocolText: Dengue 2 protease inhibition in presence of Triton X-100 (detergent test, Nature Protocol)
Format: biochemical, dengue 2 virus
particulars: 30 μM of inhibitor, 0.05% Triton X-100; initial activity in UAF/min
Residues, ends and D or L forms follow the SMILES beside them.
measure: Activity with 0.05% Triton
Answer using only a numeral; do not append any unit.

CCCCCCCCCCCCCCCCNC(=O)[C@H](CCCNC(=N)N)NC(=O)[C@H](C)NC(=O)[C@H](C)NC(=O)[C@H](CCCNC(=N)N)NC(=O)CCCCCCCCCCCCCCC [C16RA2RC16] (HELM PEPTIDE1{[CCCCCCCCCCCCCCCC(=O)[*:2]].R.A.A.R.[CCCCCCCCCCCCCCCCN[*:1]]}$$$$V2.0) = 128
CCCCCCCCCCCCNC(=O)[C@H](CCCCN)NC(=O)[C@H](CCCCN)NC(=O)CCCCCCCCCCC [C12KKC12, n-C11H23C(O)-Lys-Lys-(n-C12H25).2TFA] = 180

In: Query: Activity with 0.05% Triton; subject: CCCCCCCCCCCCCCCCNC(=O)[C@H](CCCCN)NC(=O)CNC(=O)CNC(=O)CNC(=O)CNC(=O)[C@H](CCCCN)NC(=O)CCCCCCCCCCCCCCC [C16KG4KC16] (HELM PEPTIDE1{[CCCCCCCCCCCCCCCC(=O)[*:2]].K.G.G.G.G.K.[CCCCCCCCCCCCCCCCN[*:1]]}$$$$V2.0)
Out: 125

In: Continue with CCCCCCCCCCCCCCCCNC(=O)[C@H](CCCCN)NC(=O)[C@H](C)NC(=O)[C@H](CCCCN)NC(=O)CCCCCCCCCCCCCCC
Out: 91
